experimental_protocol: qHTS Assay for Lipid Storage Modulators (AID 1519)
condition_details: Drosophila S3 cells, BODIPY lipid droplet/cell ratio, laser cytometry; measured here: cell count channel max response; cells loaded with oleic acid
Description: NIH Molecular Libraries Probe Production Centers Network [MLPCN] NIH Chemical Genomics Center [NCGC] Assay Submitter (PI): Beller, Mathias; Max-Planck-Institut fur Biophysikalische Chemie […] We dispensed 4 uL of cells at 1.25 x 10^6 cells/mL into LoBase Aurora COC 1,536-well plates (black walled, clear bottom) with a bottle-valve solenoid-based dispenser (Aurora) to obtain 5,000 cells/well. […] The ratio of the total intensity in PMT channel 1 over total intensity of channel 3 was also calculated. […]
Results filed as inconclusive are left out.
measure: max response (%)
Answers are plain numbers, in %.

Solved entries:
c1ccc(CNc2cc(-c3cccnc3)ncn2)cc1; 11.5
c1cncc(CNc2nc(-c3ccoc3)nc3ccccc23)c1; 2.22
O=c1c(-c2ccc(F)c(F)c2)nc2cncnc2n1C1CC1; 20.3
COc1ccccc1CN1CC[C@@]2(CCCN(C(=O)c3c(C)noc3C)C2)C1; 6.8
O=C(Nc1cccc(F)c1)N1CCCC2(CCN(S(=O)(=O)c3ccccc3)CC2)C1; 13.8

Batch: max response for all items listed.
1. CC(C)NC(=O)N1CCC2(CC1)CCN(C(=O)c1cc(C(F)(F)F)cc(C(F)(F)F)c1)CC2
2. COc1ccccc1CN1CC[C@@]2(CCCN(C(=O)c3cccc(F)c3)C2)C1
3. Cc1ccccc1-c1cncnc1NCc1ccccc1
4. COCCNc1ccnc(-c2ccccc2C(F)(F)F)n1

1. -8.79
2. 15.7
3. 7.66
4. 25.6

Batch: max response for all items listed.
1. COc1cccc(-c2ccc3ncnc(N4CCN(C)CC4)c3c2)c1
2. CNc1cc(-c2ccccc2C(F)(F)F)ncn1
3. CNc1ccnc(-c2ccccc2C(F)(F)F)n1
4. O=C(c1ccncc1)N1CCC2(CC1)CCN(C(c1ccccc1)c1ccccc1)CC2
5. CNc1nc(-c2ccc3c(c2)OCO3)nc2ccccc12
6. O=c1c(-c2ccc(F)cc2)nc2cnc(N3CCNCC3)nc2n1-c1ccccc1

1: 8.77; 2: 21.4; 3: 2.06; 4: 0.243; 5: 2.96; 6: 19.9

Batch: max response for all items listed.
1. Cc1nc2cnc(Nc3ccccc3)nc2n(CCC#N)c1=O
2. O=C(Nc1ccccc1)N1CC[C@@]2(CCCN(C(=O)c3ccco3)C2)C1
3. CS(=O)(=O)Nc1cccc(-c2ccc3ncnc(NC4CC4)c3c2)c1
4. COc1ccc(NC(=O)N2CC[C@@]3(CCCNC3)C2)cc1
5. c1ncc(-c2ccoc2)c(NC2CC2)n1
6. Cc1ccccc1-c1nc(NCc2cccs2)c2ccccc2n1
7. Cc1cnc(CNc2ncncc2-c2ccc(C(=O)N(C)C)cc2)cn1
8. N=C(N)SCCc1cccc(CCSC(=N)N)c1

-11.1
5.04
-8.29
-3.47
21.6
-1.85
16
-17.4

Batch: max response for all items listed.
1. Cc1noc(C)c1C(=O)N1CCC2(CC1)CN(c1ccccc1)C2
2. O=C(c1csnn1)N1CCC2(CC1)CN(Cc1cc(C(F)(F)F)cc(C(F)(F)F)c1)C2
3. COCC(=O)N1CCC2(CC1)CCN(C(=O)Nc1cccc(F)c1)CC2
4. O=c1cnc2cnc(Nc3ccccc3)nc2n1Cc1cccs1
5. COc1ccc(NC(=O)N2CC3(CCN(C(C)=O)CC3)C2)cc1
6. Cn1c(=O)c(-c2ccc(Cl)cc2)nc2cnc(Nc3ccccc3)nc21
7. O=C(O)CC[C@H](NC(=O)c1ccccc1C(=O)O)C(=O)O

-4.97
8.43
10.1
12.8
13.9
23.4
34.2
